# target.under.test: RANTES/MIP-1α chemokine receptor (CCR1) in THP-1 cell membranes (Homo sapiens, UniProt P32246)
# Construct: Membranes were prepared from THP-1 cells (ATCC #TIB202); host or cells: THP-1 cells (membrane preparation)
# Sequence (P32246 1-355): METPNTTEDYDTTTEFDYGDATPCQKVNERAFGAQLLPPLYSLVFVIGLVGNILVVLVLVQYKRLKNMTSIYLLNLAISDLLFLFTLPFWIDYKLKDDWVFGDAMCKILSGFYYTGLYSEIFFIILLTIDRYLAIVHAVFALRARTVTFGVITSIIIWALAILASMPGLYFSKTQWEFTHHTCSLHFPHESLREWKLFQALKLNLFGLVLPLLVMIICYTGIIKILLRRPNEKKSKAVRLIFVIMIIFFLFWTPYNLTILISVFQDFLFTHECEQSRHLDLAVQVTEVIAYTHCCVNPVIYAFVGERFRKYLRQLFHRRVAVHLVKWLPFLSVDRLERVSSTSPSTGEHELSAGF
# assay.overview: Receptor binding assay: 125I-RANTES or 125I-MIP-1α binding to THP-1 cell membranes
pIC50: −log10 of the molar value.
experimental.endpoint: pIC50

Known pIC50 results, listed for orientation:
{"columns": ["molecule", "test.value"],
 "data": [
  ["COC(=O)C1(Nc2ccc(Cl)cc2)CCN(CCC=C2c3cc(C(C)(C)O)ccc3OCc3ncccc32)CC1 [Example 465]", "> 6.00"],
  ["CC(C)(O)c1ccc2c(c1)C(=CCCN1CCC(C#N)(Nc3ccc(Cl)cc3)CC1)c1cccnc1CO2 [Example 464]", "> 6.00"],
  ["CC(C)(O)c1ccc2c(c1)C(=CCCN1CCC(Nc3ccc(Cl)cc3)(C(N)=O)CC1)c1cccnc1CO2 [Example 466]", "> 4.30"]
]}

Here is another molecule to look at.
Tell me the measured pIC50 of CC(C)NC(=O)Oc1ccc2c(c1)C(=CCCN1CCC(O)(c3ccc(Cl)cc3)C(C)(C)C1)c1cccnc1CO2 (stereo not shown) [Example 547] , please.
> 6.00

Reference source for all entries: patent US8653096B2
